measurement_description: chemical genetic growth profiling, strain panel (AID 1159580);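 further: tested at 20 µM; growth read once vehicle control cultures reached saturation at 30 °C; 1 = growth at the plate median or of vehicle wells; lower values mean less growth of the strain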
test_conditions: S. cerevisiae deletion strains, growth OD, locus YNL153C, strain GIM3, hits give low values
Hit rate of the full screen: of about 5,500 compounds, about 2,000 (36%) were called active. Inconclusive results (about 18%) are left out. Some of the results follow.
property_measured: normalized growth
Respond numerically, and do not add a unit to the figure.

Example entries and their recorded answers appear below.
compound	measured_result
CCN1CCN(C(=O)NC(C(=O)N[C@@H]2C(=O)N3[C@@H]2SC(C)(C)[C@@H]3C(=O)O)c2ccccc2)C(=O)C1=O (stereo partly specified)	1.01
CN(C)C(=O)Oc1cccc([N+](C)(C)C)c1	1.01

Would you kindly look at the next entry?
Fill in: normalized growth of CCCc1c(OCCCCc2nn[nH]n2)ccc(C(C)=O)c1O is ___
1.01

* * *

Each entry below lists one item and its recorded normalized growth value.
measurement_description: chemical genetic growth profiling, strain panel (AID 1159580);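 further: tested at 20 µM; growth read once vehicle control cultures reached saturation at 30 °C; 1 = growth at the plate median or of vehicle wells; lower values mean less growth of the strain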
test_conditions: S. cerevisiae deletion strains, growth OD, locus YDR392W, strain spt3, hits give low values
In all, about 5,500 compounds went through this assay and about 2,000 (36%) were called active. Another 18% or so got no clear call; they are omitted. This is one part of the list.
Respond numerically, and do not add a unit to the figure.

compound	measured_result
CC(=O)N[C@@H](Cc1c[nH]c2ccccc12)C(N)=O	0.953

Fill in: normalized growth of CC(=O)O[C@@H]1CC2C(C)(C)[C@H](O)C=C[C@]2(C)C2CC[C@]3(C)C(=CC(=O)O[C@H]3c3ccoc3)[C@@]21C (stereo not given in full) is ___
0.989

* * *

measurement_description: chemical genetic growth profiling, strain panel (AID 1159580);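 further: tested at 20 µM; growth read once vehicle control cultures reached saturation at 30 °C; 1 = growth at the plate median or of vehicle wells; lower values mean less growth of the strain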
test_conditions: S. cerevisiae deletion strains, growth OD, locus YBR023C, strain chs3
The whole screen tested about 5,500 compounds, of which about 2,000 (36%) were called active. About 18% were inconclusive and are not listed. Cut-off read from the data, not from the text of the source: active = normalized growth mostly below about 0.91 (no sharp cut-off); inconclusive = no clear call, values can overlap the other calls; inactive = mostly above about 0.92. Some of the results follow.
Would you mind answering with one of these outcomes? True = active, False = inactive

Use the examples below as a reference point.
compound	group
CC(C)c1ccc2c(c1)CCC1C(C)(C(N)=O)CCCC21C (stereo not given)	False
NS(=O)(=O)c1cc2c(cc1Cl)NC(CSCc1ccccc1)=NS2(=O)=O	False
CC(C)=CCc1c2c(c3occ(-c4ccc(O)cc4)c(=O)c3c1O)C=CC(C)(C)O2	True
O=P1(NCCCl)OCCCN1CCCl (stereo not given)	False
OC[C@H]1O[C@@H](O[C@@H]2[C@@H](CO)O[C@](O)(CO)[C@H]2O)[C@H](O)[C@@H](O)[C@H]1O	False
CC(C)=CCc1c2c(c3occ(-c4ccc(O)c(O)c4)c(=O)c3c1O)C=CC(C)(C)O2	False
CNNC	False
OC[C@H]1O[C@@H](O[C@H]2[C@H](O)[C@@H](O)[C@@H](O)O[C@@H]2CO)[C@H](O)[C@@H](O)[C@@H]1O	False

Could you please tell me the result logged for OC[C@H]1O[C@@](CO)(O[C@@H]2O[C@H](CO)[C@@H](O)[C@H](O)[C@H]2O)[C@@H](O[C@@H]2O[C@H](CO)[C@@H](O)[C@H](O)[C@H]2O)[C@@H]1O in this assay?
False

Could you please tell me the result logged for CC1=CC(=O)c2ccccc2C1=O in this assay?
False
